- Test system: Plasmodium berghei
- protocol: Luciferase/luciferin-expressing antifolate-resistant parasites were used to infect a culture of HepG2 cells that were pre-incubated with compounds. Infected hepatocytes emit light due to the luciferase reaction. Assay results are presented as the percent inhibition of light emission compared to control. […]
- Format: functional
- protocolConditions: sporozoite, read-out: LUCIFERASE INFECTION ASSAY - IC90
// reported IC90 for each item listed

{"molecule": "CCOC(=O)c1sc2sc(C(C)=O)c(C)c2c1C", "IC90": "> 11.7 µM"}
{"molecule": "NC(=O)c1ccc(N2CCNCC2)nc1", "IC90": "> 10 µM"}
{"molecule": "O=C(C1CCCN(C2=NS(=O)(=O)c3ccccc32)C1)N1CCOCC1 (stereo unspecified)", "IC90": "> 10 µM"}
{"molecule": "COc1ccc(OC)c(S(=O)(=O)N2[C@@H]3CC[C@@H](C3)[C@H]2c2nc3cccc(OCc4ccc(F)cc4)c3[nH]2)c1", "IC90": "> 10 µM"}
{"molecule": "CC(OC(=O)c1c(NC(=O)C2CCCCC2)sc2c1CCC2)C(=O)Nc1[nH]cnc2ncnc1-2 (stereo unspecified)", "IC90": "> 10 µM"}
{"molecule": "CCn1c(NC(=O)CCc2ccc3c(c2)OCCO3)nc2ccccc21", "IC90": "> 10 µM"}

###

// reported IC90 for each item listed
- Test system: Plasmodium berghei
- protocol: Luciferase/luciferin-expressing antifolate-resistant parasites were used to infect a culture of HepG2 cells that were pre-incubated with compounds. Infected hepatocytes emit light due to the luciferase reaction. Assay results are presented as the percent inhibition of light emission compared to control. […]
- Assay type: functional
- protocolConditions: sporozoite, read-out: LUCIFERASE INFECTION ASSAY - IC90
readout: IC90

{"compound": "N#Cc1c(SCc2ccccc2)nc2c(c1-c1cccs1)CCCC2", "recordedMeasurement": "> 9.1 µM"}
{"compound": "CN(CC(=O)Nc1ccc(F)c(F)c1F)c1cnccn1", "recordedMeasurement": "> 10 µM"}
{"compound": "O=C(Cn1ncc(Cl)c(Cl)c1=O)N1CCN(S(=O)(=O)c2ccc3ccccc3c2)CC1", "recordedMeasurement": "> 10 µM"}
{"compound": "CN(C)CCNC(=O)c1ccc(-c2cn3c(-c4cccc(Cl)c4)cnc3cn2)cc1", "recordedMeasurement": "> 7.86 µM"}
{"compound": "COc1cccc(/C=C/C(=O)NC2CCCc3ccccc32)c1OC(F)F (stereo unspecified)", "recordedMeasurement": "> 10 µM"}
{"compound": "Cc1ccc(-n2c(SCC(=O)N3c4ccc(S(N)(=O)=O)cc4CC3C)nc3ccccc32)cc1 (stereo unspecified)", "recordedMeasurement": "> 10 µM"}

###

// reported IC90 for each item listed
- Tested on: Plasmodium berghei
- protocol: Luciferase/luciferin-expressing antifolate-resistant parasites were used to infect a culture of HepG2 cells that were pre-incubated with compounds. Infected hepatocytes emit light due to the luciferase reaction. Assay results are presented as the percent inhibition of light emission compared to control. […]
- Assay type: functional
- protocolConditions: sporozoite, read-out: LUCIFERASE INFECTION ASSAY - IC90

{"smilesRecord": "CCOC(=O)c1ccc(N2CCCCC2)c(NC(=O)c2sc3ccccc3c2Cl)c1", "IC90": "> 7.45 µM"}
{"smilesRecord": "COc1cc(/C=C(\\C#N)c2ccc(C)cc2)cc(OC)c1OC", "IC90": "4.54 µM"}
{"smilesRecord": "CCOc1cc(/C=C/C(=O)N(c2ccccc2)c2nc(-c3ccc(F)cc3)cs2)cc(Cl)c1OC", "IC90": "> 10 µM"}
{"smilesRecord": "c1ccc(-c2ncc(CSc3ncnc4sccc34)s2)cc1", "IC90": "> 10 µM"}
{"smilesRecord": "COc1cccc(NC(=O)c2cc(C)n(Cc3cccs3)c2C)c1", "IC90": "> 9.69 µM"}
{"smilesRecord": "N=C(N)N/N=C\\c1cccc2ccccc12", "IC90": "> 15.5 µM"}
{"smilesRecord": "COc1ccccc1N(Cc1ccccc1)S(=O)(=O)c1cccc(C(=O)NC2CC(C)(C)NC(C)(C)C2)c1", "IC90": "9.9 µM"}
{"smilesRecord": "Cc1ccccc1CN1CCN2C=C(C(=O)Nc3ccc(Oc4ccccc4)cc3)OC2=NC1=O", "IC90": "> 10 µM"}
{"smilesRecord": "CCOc1ccc(NC(=S)N/N=C2/C(=O)c3cccc4cccc2c34)cc1", "IC90": "> 10 µM"}
{"smilesRecord": "O=S(=O)(Nc1cc(C(F)(F)F)cc(C(F)(F)F)c1)c1cc(C(F)(F)F)cc(C(F)(F)F)c1", "IC90": "4.66 µM"}
{"smilesRecord": "Cc1cc(O)nc(N/N=C/c2cc(C)n(CC(F)(F)F)c2C)n1", "IC90": "> 10 µM"}
{"smilesRecord": "COCCN(Cc1nnc(-c2cccs2)o1)C(=O)c1cc(C2CC2)nc2c1cnn2C(C)C", "IC90": "> 10 µM"}
{"smilesRecord": "CCCc1c(NC(=O)Nc2ccc(F)cc2)cnn1-c1ccccc1", "IC90": "6.91 µM"}

###

- Tested on: Plasmodium berghei
- protocol: Luciferase/luciferin-expressing antifolate-resistant parasites were used to infect a culture of HepG2 cells that were pre-incubated with compounds. Infected hepatocytes emit light due to the luciferase reaction. Assay results are presented as the percent inhibition of light emission compared to control. […]
- Type: functional
- protocolConditions: sporozoite, read-out: LUCIFERASE INFECTION ASSAY - IC50

{"compound": "Cc1cc(C(=O)N(C(=O)NC2CCCCC2)C2CCCCC2)c(C)n1-c1ccccc1", "IC50": "1.12 µM"}
{"compound": "N#Cc1ccc(OCC(=O)c2ccc(OC(F)F)cc2OC(F)F)cc1", "IC50": "> 10 µM"}
{"compound": "Cc1cc(Cl)ccc1NC(=O)c1cn(C)nc1C(F)(F)F", "IC50": "> 10 µM"}
{"compound": "Cc1ccccc1OCCOC(=O)Nc1ccccc1", "IC50": "> 12.2 µM"}
{"compound": "COc1cc2c(cc1NC(=O)C(C)NCC(c1ccccc1)N(C)C)oc1ccccc12 (stereo unspecified)", "IC50": "> 10 µM"}
{"compound": "Cc1nc(SCC(=O)N2CCC(c3nc4ccccc4o3)CC2)c2c(C)c(C)sc2n1", "IC50": "> 10 µM"}
{"compound": "CC(C)CN1CCOC(CSc2nc3sc4c(c3c(=O)n2C)CCC4)C1 (stereo unspecified)", "IC50": "> 10 µM"}
{"compound": "N#Cc1ccccc1S(=O)(=O)Nc1cccc(-n2cccn2)c1", "IC50": "> 10 µM"}
{"compound": "O=C(Nc1ccc(OC(F)(F)F)cc1)N1CCN(c2cc(C(F)(F)F)nc3ccccc23)CC1", "IC50": "> 6.81 µM"}
{"compound": "c1nc(NCC2(N3CCOCC3)CCCCC2)c2ccsc2n1", "IC50": "> 10 µM"}
{"compound": "CCOC(=O)c1nc(N(CCc2ccccc2)C(=O)c2cnc3c(cnn3C(C)C)c2)sc1C", "IC50": "> 10 µM"}

###

- Tested on: Plasmodium berghei
- protocol: Luciferase/luciferin-expressing antifolate-resistant parasites were used to infect a culture of HepG2 cells that were pre-incubated with compounds. Infected hepatocytes emit light due to the luciferase reaction. Assay results are presented as the percent inhibition of light emission compared to control. […]
- Type: functional
- protocolConditions: sporozoite, read-out: LUCIFERASE INFECTION ASSAY - IC50

{"molecule": "CN1C(=O)Cc2cc(C3=NNC(=Nc4ccccc4F)SC3)ccc21", "IC50": "> 10 µM"}
{"molecule": "Cc1cc(C(O)=C2Sc3ccccc3C2=O)c(C)n1C", "IC50": "> 10 µM"}
{"molecule": "Cc1cc(C(=O)OCc2c(Cl)cccc2Cl)c(C)o1", "IC50": "> 10 µM"}
{"molecule": "COc1ccc2c(c1)CCCN2Cc1nn2c(=O)cc(C)nc2s1", "IC50": "> 10 µM"}
{"molecule": "CSc1ccc(/C=N/OCC(=O)NCCc2ccc(Cl)cc2Cl)cc1", "IC50": "> 10 µM"}
{"molecule": "Cc1nnc(Sc2ncc([N+](=O)[O-])s2)n1-c1ccc(OCc2ccccc2)cc1", "IC50": "> 7.76 µM"}
{"molecule": "c1ccc(-c2nnc(SCc3cn4ccccc4n3)nc2-c2ccccc2)cc1", "IC50": "> 10 µM"}
{"molecule": "Cc1csc2sc(C(=O)N3CCOCC3)c(C)c12", "IC50": "> 11.7 µM"}
{"molecule": "O=C(OCc1cn(-c2ccccc2)nc1-c1ccccc1)c1ccc(N2CCOCC2)nc1", "IC50": "> 10 µM"}
{"molecule": "CC(=O)n1c(Nc2ccc(F)cc2)c(Sc2ccccc2[N+](=O)[O-])c2ccccc2c1=O", "IC50": "5.95 µM"}
{"molecule": "COc1cc(C(F)(F)F)nc2ccc(C#CCOC(=O)c3ccccc3Cl)cc12", "IC50": "> 7.86 µM"}
{"molecule": "COc1cc(/C=N/Nc2nc(Cl)c(Cl)cc2Cl)ccc1OCC(=O)N1CC(C)OC(C)C1 (stereo not given)", "IC50": "> 10 µM"}
{"molecule": "Cc1ccccc1/N=C1\\SCC(C)(C)N1C(=O)c1ccccc1OCc1ccccc1", "IC50": "> 10 µM"}
{"molecule": "CCN(CC)c1ccc(/C=C2\\CCC(/C=N/NC(=O)NC3CCCCC3)=C2N2CCOCC2)cc1", "IC50": "> 10 µM"}
{"molecule": "COC(=O)c1scc(S(=O)(=O)Cc2ccco2)c1NN=C(C#N)C#N", "IC50": "> 8.72 µM"}
{"molecule": "Cc1noc2nc(C3CC3)cc(C(=O)Oc3ccc(N4CCCC4=O)cc3)c12", "IC50": "> 10 µM"}
{"molecule": "Cc1cnc2c(S(=O)(=O)NCc3csc(-c4ccccc4)n3)cccc2c1", "IC50": "> 10 µM"}
{"molecule": "CNC(=O)c1sc2scc(C)c2c1C", "IC50": "> 14.6 µM"}
{"molecule": "COc1ccc(Cl)cc1NC(=O)N1CCC(Cc2ccccc2)CC1", "IC50": "> 9.2 µM"}
{"molecule": "O=C1N=C(NC2CCCC2)S/C1=C\\c1ccc(Cl)cc1", "IC50": "> 10 µM"}
{"molecule": "Oc1ccc(-c2cn3c(-c4ccsc4)cnc3cn2)cc1", "IC50": "10.6 µM"}
{"molecule": "CC(OC(=O)c1cccnc1N)C(=O)Nc1ccc2ccccc2c1 (stereo not given)", "IC50": "> 10 µM"}
{"molecule": "COCCCNC(=O)Cc1ccc(S(=O)(=O)N2CCOCC2)s1", "IC50": "> 10 µM"}
{"molecule": "CC(C)(C)c1cc(C(=O)NNC(=O)Nc2cccc(C(F)(F)F)c2)n(Cc2ccccc2)n1", "IC50": "> 7.18 µM"}
{"molecule": "CC1CCc2c(sc3ncnc(NCC(c4ccccc4)N(C)C)c23)C1 (stereo not given)", "IC50": "> 10 µM"}
{"molecule": "CN1/C(=C\\C(=O)COC(=O)c2cc3ccccc3cc2O)C(C)(C)c2ccccc21", "IC50": "> 10 µM"}
{"molecule": "O=C(Nc1ccc(OC(F)(F)F)cc1)N1CCc2nc(Nc3cc(Cl)cc(Cl)c3)ncc2C1", "IC50": "> 6.62 µM"}
{"molecule": "FC(F)(F)c1nnc2ccc(Oc3ccc(Cl)c4ccccc34)nn12", "IC50": "> 10 µM"}
{"molecule": "C=CCSc1nnc(-c2ccco2)n1-c1ccc(OCc2ccccc2)cc1", "IC50": "> 8.47 µM"}
{"molecule": "NC(CCc1ccccc1)c1csc(NC(=O)Nc2cccc3ccccc23)n1 (stereo not given)", "IC50": "5.11 µM"}
{"molecule": "COc1ccc(C2CC(c3ccccc3)=NN2C(=O)CSc2ncnc3ccccc23)cc1 (stereo not given)", "IC50": "> 10 µM"}
{"molecule": "CCOC(=O)c1sc2sc(C(C)=O)c(C)c2c1C", "IC50": "> 11.7 µM"}
{"molecule": "CC(C)c1ccc(C(=O)N2CC(C(=O)N3CCOCC3)Oc3ccccc32)cc1 (stereo not given)", "IC50": "> 10 µM"}
{"molecule": "Cc1c(C(=O)Nc2nc(CN3CCCC(C)C3)cs2)oc2ccc(Cl)cc12 (stereo not given)", "IC50": "> 10 µM"}
{"molecule": "Cc1noc(C)c1S(=O)(=O)N(C)Cc1ccc(-c2ccc(Cl)cc2)o1", "IC50": "> 10 µM"}

The reported measurements were obtained from ChEMBL document CHEMBL4483862.
